# measurement-context: in cyclohexane, 283.15 K
measurement-kind: solubility (mole fraction)
When you answer, write just the number.

Lab note: "CO[C@@]1(NC(=O)CSCC#N)C(=O)N2C(C(=O)[O-])=C(CSc3nnnn3C)CS[C@@H]21.[Na+]" gave solubility (mole fraction) of 1.75e-06

---

# measurement-context: in n-hexane, 288.15 K
measurement-kind: solubility (mole fraction)

Lab note: "CO[C@@]1(NC(=O)CSCC#N)C(=O)N2C(C(=O)[O-])=C(CSc3nnnn3C)CS[C@@H]21.[Na+]" gave solubility (mole fraction) of 2.59e-06

---

# measurement-context: in n-pentanol, 303.15 K
measurement-kind: solubility (mole fraction)

Lab note: "CO[C@@]1(NC(=O)CSCC#N)C(=O)N2C(C(=O)[O-])=C(CSc3nnnn3C)CS[C@@H]21.[Na+]" gave solubility (mole fraction) of 8e-05
